I'd be grateful if you could share measured GI50 for these entries.
- System: HCT-116
- assayMethodText: NCI tumour cell line growth inhibition, 48 h
Active and inactive are the calls of the source. Rule as the data show it: active = GI50 up to about 1.1 µM and inactive = higher.

molecule: C=C1CCC2CC1[C@@H](C(=O)c1c[nH]c3ccccc13)NC2(C)C (some centres undefined)
assayedTarget: HCT-116
GI50: > 37.5 µM (inactive)
--
molecule: CN(Cc1cnc2nc(N)nc(N)c2n1)c1ccc(C(=O)NC(CCC(=O)NC(CC(P(=O)(O)O)P(=O)(O)O)C(=O)O)C(=O)O)cc1 (centres undefined)
assayedTarget: HCT-116
GI50: > 100 µM (inactive)
--
molecule: CC(=O)O[C@H]1[C@@H](N2CCN(C)CC2)C[C@H]2[C@@H]3CC=C4C[C@@H](N5CCCC5)CC[C@]4(C)[C@H]3CC[C@@]21C
assayedTarget: HCT-116
GI50: 16.9 µM (inactive)

// next entry
Prompt: Which GI50 value is on record for Cc1ccc(C2c3c(n(C)c(=O)n(C)c3=O)OC(N(C)C)(N(C)C)C2(F)F)cc1 (centres undefined) ?
Completion: > 100 µM (inactive)

* * *

For each entry below, report its GI50 value.
- Test system: SW-620
- assayMethodText: NCI tumour cell line growth inhibition, 48 h
Activity calls are given as the source filed them. Cut-off read from the data, not from the text of the source: active = GI50 up to about 1.1 µM and inactive = higher.

molecule: CCOC(=O)c1cc2cc3c4c(c2oc1=O)CCCN4CCC3
metric: GI50
result: 67.9 µM (inactive)
//
molecule: O/N=N/c1cnccn1
metric: GI50
result: > 1250 µM (inactive)
//
molecule: c1ccc(N2CCN(CCN3CCc4c([nH]c5ccccc45)C3c3cccnc3)CC2)cc1 (stereo unspecified)
metric: GI50
result: > 100 µM (inactive)

Hey, can you go through the list below and give me GI50 for every item?
1. CP(=O)(CCSc1ccccc1)c1ccccc1 (stereo unspecified)
2. C=CCc1cc(C(Cc2ccccc2)NC(C)C)cc(OCc2ccccc2)c1OCc1ccccc1 (stereo unspecified)
3. O=C(O)Cc1cccc2c1OC(c1ccccc1)C(Cl)(C(=O)c1ccccc1)C2=O (stereo unspecified)

Completion:
> 100 µM (inactive)
18.2 µM (inactive)
9.33 µM (inactive)

Hi! Can you tell me GI50 for each of these molecules?
1. O=Cc1c2n(c3ccccc13)N[C@@](Cc1ccc(O)cc1)(C(=O)O)C2
2. CCOC(=O)c1cn2c(n1)sc1cc(Cl)ccc12
3. CC1=C/C(O)CC(=O)Cc2nc(co2)C(=O)N2CCC=C2C(=O)OC(C(C)C)C(C)/C=C\C(=O)NC/C=C\1 (stereo unspecified)

Completion:
["56.8 µM (inactive)", "4.75 µM (inactive)", "18.1 µM (inactive)"]

Provide reported GI50 for each item, in the same order as listed.
1. Cc1nc2sc3cccc(Cl)c3n2c(=O)c1/N=N/c1ccc(Cl)cc1
2. COc1ccc2c(c1)CCCC(Br)C2=O (stereo unspecified)

Completion:
1: 66.5 µM (inactive); 2: 2.29 µM (inactive)

* * *

- Tested on: HOP-62
- assayMethodText: NCI tumour cell line growth inhibition, 48 h
Calls of active or inactive are those of the source. Rule as the data show it: active = GI50 up to about 1.1 µM and inactive = higher.
So I've got a bunch of molecules here, and I need their GI50 values.

Please review the following examples before continuing.
molecule: COc1cc(Cc2cc(OC)c(OC)c(OC)c2)ccc1O
result: 26.8 µM (inactive)

molecule: CC1S(=O)(=O)OCCOS1(=O)=O
result: > 100 µM (inactive)

molecule: CC1CN(c2cc3c(cc2F)c(=O)c(C(=O)O)cn3-c2ccc(F)cn2)CC(C)N1 (stereo unspecified)
result: > 100 µM (inactive)

Please look at the items below and tell me GI50 for each one, in order.
1. CC(=O)N1NC(c2ccccc2)=CC(=O)/C1=C/C(=O)c1ccccc1
2. CC(=O)OC1=c2ccccc2=C(O)C2C1C=NN2C(C)=O (stereo unspecified)

Completion:
88.1 µM (inactive)
> 100 µM (inactive)

* * *

- System: UACC-62
- assayMethodText: NCI tumour cell line growth inhibition, 48 h
Active and inactive are the calls of the source. No stated cut-off is given here; in the data, active = GI50 up to about 1.1 µM and inactive = higher.
Would you mind telling me the reported GI50 of each entry?

Solved entries:
molecule: COC1(Cc2ccccc2)C(=O)c2ccccc2N1C(C)=O (centres undefined)
GI50: > 100 µM (inactive)
//
molecule: O=C(Nc1nncs1)NS(=O)(=O)n1cnc2ccccc21
GI50: > 100 µM (inactive)
//
molecule: O=C1[C@@H]2C(c3ccccc3[N+](=O)[O-])=[N+](c3ccccc3)O[C@@H]2C(=O)N1c1ccc(Cc2ccc(N3C(=O)[C@H]4C(c5ccccc5[N+](=O)[O-])=[N+](c5ccccc5)O[C@H]4C3=O)cc2)cc1
GI50: 67.6 µM (inactive)

I would be grateful if you could provide GI50 for each of the following entries.
1. COc1ccccc1/N=N/C(=N/NC(=O)c1ccc(C)cc1)c1ccc(N(CCC#N)CCC#N)cc1OC
2. COc1cc(Cc2cc(OC)c(OC)c(OC)c2)ccc1O
3. CC(=O)OCCOCNC(=S)N/N=C(\C)c1cnc2ccccc2n1
4. COc1ccc2c(c1)[n+]([O-])c(C(=O)CC(=O)C(=O)Nc1cccc(Cl)c1C)c(C)[n+]2[O-]
5. COc1ccc2c(c1)CCCC(Br)C2=O (centres undefined)

Completion:
["38.3 µM (inactive)", "9.95 µM (inactive)", "14.2 µM (inactive)", "> 100 µM (inactive)", "2.8 µM (inactive)"]

Prompt: // returns reported GI50 for input `Cc1ccc2nc(-c3ccccc3)cc(=O)n2c1`
Completion: > 100 µM (inactive)

* * *

- Test system: OVCAR-8
- assayMethodText: NCI tumour cell line growth inhibition, 48 h
Activity calls are given as the source filed them. No stated cut-off is given here; in the data, active = GI50 up to about 1.1 µM and inactive = higher.
Response enum: t for active, f for inactive

See these solved cases before continuing.
compound: O=C1/C(=C/c2ccc(Cl)cc2)Oc2ccccc21
assignedClass: f

compound: CC1(C)O[C@H]2OC(CO)C(N=[N+]=[N-])[C@H]2O1 (stereo not given in full)
assignedClass: f

compound: Nc1nc(O)c2ncn([C@H]3CC[C@@H](CO)O3)c2n1
assignedClass: f

compound: O=C1c2c(O)ccc(O)c2C(=O)c2c(NCCNC(=O)C(O)C(O)C(O)C(O)CO)ccc(NCCNC(=O)C(O)C(O)C(O)C(O)CO)c21 (stereo not given)
assignedClass: t

We now examine a further compound.
Prompt: Assay result, entry `O=c1c2ccccc2nc(-c2ccccc2)n1NC(=S)Nc1cccc(Cl)c1` — outcome?
Completion: f

* * *

- Tested on: OVCAR-4
- assayMethodText: NCI tumour cell line growth inhibition, 48 h
Calls of active or inactive are those of the source. Cut-off read from the data, not from the text of the source: active = GI50 up to about 1.1 µM and inactive = higher.
Hi there, I'd appreciate the recorded GI50 for every entry that follows.

compound: NNC(=O)CC(=O)Nc1ccc(S(=O)(=O)c2ccc(NC(=O)CC(=O)NN)cc2)cc1
metric: GI50
result: > 100 µM (inactive)
--
compound: O=C1/C(=C/c2ccc(Br)s2)NC(=S)N1CN1CCCCC1
metric: GI50
result: 36.8 µM (inactive)
--
compound: COC(=N)c1csc(C2OC(CO)C(O)C2O)n1 (stereo not given)
metric: GI50
result: > 100 µM (inactive)

Count: 2. Required value per item: GI50.
1. N#Cc1c(O)nc2nn3c4ccc5ccccc5c4nnc3c2c1-c1ccc(Cl)cc1
2. COC(=O)C(C(=O)C(=O)Nc1c(C)cccc1C(C)(C)C)c1nc2ccc(Cl)cc2nc1O (stereo not given)

Completion:
3.58 µM (inactive)
> 100 µM (inactive)

* * *

- System: NCI-H23
- assayMethodText: NCI tumour cell line growth inhibition, 48 h
Active and inactive are the calls of the source. Rule as the data show it: active = GI50 up to about 1.1 µM and inactive = higher.
// allowed return values: active, inactive

Prompt: Field: outcome | Entry: `COc1ccc(-c2cc(O)c3cc(OC)c(OC)cc3n2)cc1OC`
Completion: inactive

Prompt: For `Cc1c(-c2ccccc2)c(C#N)c2nnc(C(N)=O)c(N)n12` , what call appears in the results of this test?
Completion: inactive

Prompt: Identify the outcome logged in this assay for the molecule shown: `COc1ccccc1/N=N/C(=N/NC(=O)c1ccc(C)cc1)c1ccc(N(CCC#N)CCC#N)cc1OC`
Completion: inactive

Prompt: Field: outcome | Entry: `COc1ccccc1Nc1nc(NNC(=O)Cc2ccccc2)nc(NNC(=O)c2ccncc2)n1`
Completion: inactive

Prompt: // return assay outcome for `CC(C)NC(=O)CCN(C(=O)O)S(=O)(=O)c1ccc(NC(=O)c2ccccc2)cc1`
Completion: inactive

Prompt: # lookup: test call for O=C1C2Nc3ccccc3SC2C(=O)N1c1ccccc1C(F)(F)F (stereo not drawn)
Completion: inactive

Prompt: Entry CCCCCCCC1(c2ccc(N)cc2)CCC(=O)NC1=O (stereo not drawn) : call = ?
Completion: inactive

* * *

- System: IGROV-1
- assayMethodText: NCI tumour cell line growth inhibition, 48 h
Activity calls are given as the source filed them. Cut-off read from the data, not from the text of the source: active = GI50 up to about 1.1 µM and inactive = higher.
Field: GI50. Provide a value for each of the molecules that follow.

State recorded GI50 for all listed molecules.
1. CN(Cc1cnc2nc(N)nc(N)c2n1)c1ccc(C(=O)NC(CCC(=O)NC(CC(P(=O)(O)O)P(=O)(O)O)C(=O)O)C(=O)O)cc1 (stereo unspecified)
2. CC(=O)N1NC(c2ccccc2)=CC(=O)/C1=C/C(=O)c1ccccc1
3. O=[N+]([O-])c1ccc(Cc2nc3ccccc3s2)cc1
4. N#Cc1nn(C2OC(COC(=O)c3ccccc3)C(OC(=O)c3ccccc3)C2OC(=O)c2ccccc2)c2nc[nH]c(=O)c12 (stereo unspecified)

Completion:
["> 100 µM (inactive)", "34.3 µM (inactive)", "> 100 µM (inactive)", "42.7 µM (inactive)"]

Just for reference, ChEMBL document CHEMBL1201862 is where these values come from.
